# Target Desc: Kir6.2-GFP + SUR1 (Homo sapiens)
# Sequence (Q14654 whole entry): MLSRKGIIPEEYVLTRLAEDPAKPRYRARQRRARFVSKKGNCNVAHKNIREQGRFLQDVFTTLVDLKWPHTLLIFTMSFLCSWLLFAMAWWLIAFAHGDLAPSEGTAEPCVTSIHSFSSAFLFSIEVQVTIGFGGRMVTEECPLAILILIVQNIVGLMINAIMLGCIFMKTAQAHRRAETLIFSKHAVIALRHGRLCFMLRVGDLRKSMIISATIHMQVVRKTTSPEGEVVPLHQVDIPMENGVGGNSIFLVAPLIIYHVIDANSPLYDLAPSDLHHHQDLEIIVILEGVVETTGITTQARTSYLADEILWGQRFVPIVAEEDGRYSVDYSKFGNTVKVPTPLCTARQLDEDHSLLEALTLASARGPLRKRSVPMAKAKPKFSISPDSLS
# Sequence (Q09428 whole entry partner): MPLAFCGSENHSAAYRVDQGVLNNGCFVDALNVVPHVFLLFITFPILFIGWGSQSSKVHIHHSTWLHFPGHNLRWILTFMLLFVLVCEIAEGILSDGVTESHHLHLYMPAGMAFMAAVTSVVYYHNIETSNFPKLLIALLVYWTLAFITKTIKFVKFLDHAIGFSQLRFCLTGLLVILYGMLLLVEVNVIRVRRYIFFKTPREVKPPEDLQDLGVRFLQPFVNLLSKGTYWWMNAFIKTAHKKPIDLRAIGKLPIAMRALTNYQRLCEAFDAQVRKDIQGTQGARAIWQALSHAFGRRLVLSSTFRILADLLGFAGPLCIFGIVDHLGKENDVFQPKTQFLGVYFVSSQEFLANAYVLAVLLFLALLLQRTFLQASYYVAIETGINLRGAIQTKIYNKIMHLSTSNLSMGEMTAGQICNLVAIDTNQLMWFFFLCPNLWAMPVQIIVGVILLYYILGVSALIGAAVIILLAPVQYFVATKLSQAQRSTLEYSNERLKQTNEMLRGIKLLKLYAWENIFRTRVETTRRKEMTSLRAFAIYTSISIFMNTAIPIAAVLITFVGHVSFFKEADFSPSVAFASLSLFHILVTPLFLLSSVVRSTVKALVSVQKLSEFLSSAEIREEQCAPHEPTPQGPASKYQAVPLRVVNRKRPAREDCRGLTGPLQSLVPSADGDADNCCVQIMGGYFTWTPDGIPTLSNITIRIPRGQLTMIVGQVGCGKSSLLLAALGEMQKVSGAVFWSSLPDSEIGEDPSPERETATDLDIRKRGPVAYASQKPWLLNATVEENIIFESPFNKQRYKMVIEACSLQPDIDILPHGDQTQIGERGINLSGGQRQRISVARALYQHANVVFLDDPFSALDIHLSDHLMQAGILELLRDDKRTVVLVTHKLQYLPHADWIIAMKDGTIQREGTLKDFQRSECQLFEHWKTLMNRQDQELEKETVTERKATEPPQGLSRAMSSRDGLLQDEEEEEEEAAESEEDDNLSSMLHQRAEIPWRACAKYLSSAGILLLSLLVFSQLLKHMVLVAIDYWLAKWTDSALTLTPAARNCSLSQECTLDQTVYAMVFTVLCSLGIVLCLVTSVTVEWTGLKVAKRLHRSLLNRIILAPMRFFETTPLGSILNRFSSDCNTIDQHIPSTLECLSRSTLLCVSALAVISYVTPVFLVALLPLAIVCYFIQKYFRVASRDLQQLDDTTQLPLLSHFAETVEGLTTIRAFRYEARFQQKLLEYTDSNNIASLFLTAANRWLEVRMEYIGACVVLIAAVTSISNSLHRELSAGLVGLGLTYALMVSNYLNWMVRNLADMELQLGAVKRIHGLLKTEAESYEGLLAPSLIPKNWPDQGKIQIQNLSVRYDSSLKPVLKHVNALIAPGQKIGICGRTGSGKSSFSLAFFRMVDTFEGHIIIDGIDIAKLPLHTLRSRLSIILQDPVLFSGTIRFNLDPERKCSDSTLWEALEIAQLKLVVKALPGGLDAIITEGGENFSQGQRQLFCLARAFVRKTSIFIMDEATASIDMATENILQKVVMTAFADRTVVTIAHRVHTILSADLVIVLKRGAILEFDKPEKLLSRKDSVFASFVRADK
# Experiment: Current inhibition in excised inside-out patches (patch-clamp fluorometry)
# Type: biochemical
# Set-up: full length, fully ANAP-labelled Kir6.2 protein was produced and successfully trafficked to the membrane in the presence of SUR1; expressed in transfected cells; host or cells: HEK-293T
# Measurement Parameters: excised patches, Hill fit with 1-Imax set to 0, n = 3; read-out: IC50 current inhibition
Property Label: IC50
Reply with a number, then the unit it belongs to.

Req: Return reported IC50; argument: CCN(CC)CC
Resp: 63.1 mM
